- testedOn: Histamine H3 receptor (Homo sapiens, UniProt Q9Y5N1)
- Sequence (Q9Y5N1 whole entry): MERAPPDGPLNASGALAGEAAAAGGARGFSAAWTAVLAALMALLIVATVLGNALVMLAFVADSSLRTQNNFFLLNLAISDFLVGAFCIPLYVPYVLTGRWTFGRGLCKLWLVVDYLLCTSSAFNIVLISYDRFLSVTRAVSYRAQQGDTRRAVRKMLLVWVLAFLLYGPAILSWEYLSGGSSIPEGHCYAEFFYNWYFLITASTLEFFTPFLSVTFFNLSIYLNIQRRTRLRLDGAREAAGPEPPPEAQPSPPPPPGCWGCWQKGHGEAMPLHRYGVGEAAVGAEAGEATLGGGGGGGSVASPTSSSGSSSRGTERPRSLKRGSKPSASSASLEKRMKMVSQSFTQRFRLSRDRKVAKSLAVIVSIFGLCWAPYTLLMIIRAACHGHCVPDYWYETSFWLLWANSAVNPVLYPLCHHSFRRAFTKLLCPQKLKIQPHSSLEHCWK
- measurementProtocol: Binding affinity to recombinant human H3 receptor
pKi: −log10 of the molar value.
recordedMetric: pKi

The examples below pair each entry with its known result.
CC(C)N1CCC(NC(=O)c2ccc(OC3CCN(C4CCCC4)CC3)cc2)C1 (stereo unspecified) :: 9.00
CC(C)N1CCC(Oc2ccc(C(=O)NC3CCN(C(C)C)C3)cc2)CC1 (stereo unspecified) :: 9.05

[a] O=C1c2ccc(OC3CCN(C4CCC4)CC3)cc2CCN1C1CCN(C2CCC2)CC1
[b] CC(C)CN1CCC(NC(=O)c2ccc(OC3CCN(C(C)C)CC3)cc2)C1 (stereo unspecified)
[c] O=C1CCCN1c1ccc(Oc2ccc3c(c2)CCN(C2CCC2)CC3)nc1
[d] CC(C)N1CCC(Oc2ccc3c(c2)CCN(C2CCN(C(C)C)C2)C3=O)CC1 (stereo unspecified)
Place the items in sequence of falling pKi. Give the labels in the order requested.
a, d, b, c
(a: 10.52, d: 10.00, b: 8.92, c: 8.00)

====

- measurementProtocol: Plasma concentration in Wistar rat at 10 mg/kg, po after 1 hr by LC-MS/MS analysis
- Type: ADME, organism-based
recordedMetric: concentration at 1 h (ng/mL)
Your answer is read as ng/mL, so omit the unit and give the number.

Dear colleague, I am looking for the recorded concentration at 1 h of the following molecule: "O=C1c2ccc(OC3CCN(C4CCC4)CC3)cc2CCN1C1CCN(C2CCC2)CC1"
15.7

====

- testedOn: Histamine H3 receptor (Homo sapiens)
- measurementProtocol: Antagonist activity at recombinant human H3 receptor expressed on CHO-K1 cells assessed as cAMP level by luciferase gene reporter assay
pIC50: −log10 of the molar value.
recordedMetric: pIC50

Study these solved cases before continuing.
CC(C)N1CCC(NC(=O)c2ccc(OC3CCN(C4CCCC4)CC3)cc2)C1 (stereo not given) :: 6.56
CC(C)CN1CCC(NC(=O)c2ccc(OC3CCN(C(C)C)CC3)cc2)C1 (stereo not given) :: 6.34

[1] CC(C)N1CCC(Oc2ccc(C(=O)NC3CCN(C(C)C)C3)cc2)CC1 (stereo not given)
[2] CC(C)N1CCC(Oc2ccc3c(c2)CCN(C2CCN(C(C)C)C2)C3=O)CC1 (stereo not given)
[3] O=C1c2ccc(OC3CCN(C4CCC4)CC3)cc2CCN1C1CCN(C2CCC2)CC1
Rank ascending by pIC50. Kindly provide the labels arranged according to the requested ordering.
1, 2, 3
(1: 6.49, 2: 7.84, 3: 8.32)

====

- measurementProtocol: Plasma concentration in Wistar rat at 3 mg/kg, po after 1 hr by LC-MS/MS analysis
- Type: ADME, organism-based
recordedMetric: concentration at 1 h (ng/mL)
The reply should contain only the number, in ng/mL.

I am curious: what concentration at 1 h value has been reported for "O=C1c2ccc(OC3CCN(C4CCC4)CC3)cc2CCN1C1CCN(C2CCC2)CC1" ?
3.7

====

- measurementProtocol: Ratio of drug level in brain to blood in Wistar rat at 10 mg/kg, po by LC-MS/MS analysis
recordedMetric: Kp
Quick one: just the number, no unit, thanks!

For the compound shown here, "O=C1c2ccc(OC3CCN(C4CCC4)CC3)cc2CCN1C1CCN(C2CCC2)CC1" , give the reported Kp.
0.54
